These data points were gathered from patent US20090042883A1.

For each record, write down the corresponding Viability of tumor cells (% viability), Human lung cancer NCI-H596 cells.
tested on: human lung cancer NCI-H596 cells; assay: Growth inhibition test on human lung cancer NCI-H596 cells (WST-1, % viability); format: cell-based; settings: test compound 10 μmol/L, cells without test compound = 100%
Numbers only, in %.

>>> result_number("CCc1c(O)cc(O)c(C(=O)c2ccc(OC)cc2)c1CC(=O)N(CCO)CCO")
35
>>> result_number("CCc1c(O)cc(O)c(C(=O)c2ccc(OC)cc2)c1CC(=O)N1CCC(CO)CC1")
25
>>> result_number("CCc1c(O)cc(O)c(C(=O)c2ccc(S(C)(=O)=O)cc2)c1CC(=O)N(CCOC)CCOC")
16
>>> result_number("CCc1c(O)cc(O)c(C(=O)c2ccc(OC)cc2)c1CC(=O)N1CCN(c2ccccc2C#N)CC1")
16
>>> result_number("CCc1c(O)cc(O)c(C(=O)c2ccc(OC)c(OC)c2)c1CC(=O)N(CCO)CCOC")
20

Working through the 2 compounds below one at a time, give Viability of tumor cells (% viability), Human lung cancer NCI-H596 cells for each.
1. CCc1c(O)cc(O)c(C(=O)c2ccc(OCCN3CCOCC3)c(OC)c2)c1CC(=O)N(CCOC)CCOC
2. CCc1c(O)cc(O)c(C(=O)c2ccc(OC)cc2)c1CC(=O)N(CCO)CCOC

## Result
17
20

Batch request: Viability of tumor cells (% viability), Human lung cancer NCI-H596 cells for each of the following compounds.
1. CCc1c(O)cc(O)c(C(=O)c2ccc(SC)cc2)c1CC(=O)N(CCO)CCOC
2. CCc1c(O)cc(O)c(C(=O)c2ccc(OCCN3CCOCC3)c(OC)c2)c1CC(=O)N(CCOC)CCOC.Cl
3. CCc1c(O)cc(O)c(C(=O)c2ccc(OC(C)C)cc2)c1CC(=O)N(CCOC)CCN1CCOCC1
4. CCOc1ccc(C(=O)c2c(O)cc(O)c(CC)c2CC(=O)N(CCO)CCOC)cc1
5. CCc1c(O)cc(O)c(C(=O)c2ccc(OCCCN3CCOCC3)c(OC)c2)c1CC(=O)N(CCOC)CCOC

## Result
1. 14
2. 16
3. 17
4. 15
5. 14
